Origin of the recorded values: patent US8278345B2

molecular target: hQC (Homo sapiens, UniProt Q16769); assay: Inhibitor assay for glutaminyl cyclase activity (fluorometric, H-Gln-βNA / H-Gln-AMC); format: biochemical; conditions: read-out: IC50
Sequence (Q16769 29-361): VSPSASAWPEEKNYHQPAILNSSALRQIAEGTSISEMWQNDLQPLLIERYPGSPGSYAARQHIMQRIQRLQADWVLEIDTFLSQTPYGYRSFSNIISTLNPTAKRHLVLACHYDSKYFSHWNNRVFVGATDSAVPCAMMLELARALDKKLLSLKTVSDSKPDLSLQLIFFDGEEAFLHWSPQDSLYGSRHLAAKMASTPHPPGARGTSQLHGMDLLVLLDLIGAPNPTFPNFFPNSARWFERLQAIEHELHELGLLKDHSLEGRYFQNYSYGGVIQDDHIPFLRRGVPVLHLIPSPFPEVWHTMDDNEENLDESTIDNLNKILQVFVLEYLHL
measured.attribute: IC50 (µM)

Please review the following examples before continuing.
compound: COc1ccc(C2C(c3cccc(O)c3)=C(O)C(=O)N2CCCn2ccnc2)cc1 (centres unmarked)
readout.units: µM
numeric.result: 2.2
//
compound: CCC1C(C)=C(O)C(=O)N1CCCn1ccnc1 (centres unmarked)
readout.units: µM
numeric.result: 4.9
//
compound: O=C1C(O)=C(c2ccc(O)cc2)C(c2ccncc2)N1CCCn1ccnc1 (centres unmarked)
readout.units: µM
numeric.result: 7.6
//
compound: CC1=C(O)C(=O)N(c2ccc3[nH]cnc3c2)C1c1ccc(Cl)c(C(F)(F)F)c1 (centres unmarked)
readout.units: µM
numeric.result: 9.85
//
compound: CCC/C=C/C1C(c2cccc(O)c2)=C(O)C(=O)N1CCCn1ccnc1 (centres unmarked)
readout.units: µM
numeric.result: 5.8
//
compound: CC(=O)C1=C(O)C(=O)N(c2ccc3[nH]cnc3c2)C1c1ccc2nsnc2c1 (centres unmarked)
readout.units: µM
numeric.result: 0.004

P: Cc1cccc(C2C(C(=O)C3CC3)=C(O)C(=O)N2c2ccc3[nH]cnc3c2)c1 (centres unmarked)
Q: CC1=C(O)C(=O)N(CCCn2ccnc2)C1c1cccc(Cl)c1 (centres unmarked)
Task for the reader: decide whether P or Q has the larger IC50. // output: label of the selected item Q
(Q: 0.4 µM, P: 0.04 µM)
